These data points were gathered from ChEMBL document CHEMBL2331547.

Reported pKi values are given for each entry in this list.
molecular target: Carbonic anhydrase 9 (Homo sapiens, UniProt Q16790); assay: Inhibition of human recombinant carbonic anhydrase-9-mediated CO2 hydration preincubated for 10 mins by stopped-flow assay
Remember, pKi is on a log scale: it is -log10 of the molar concentration.

The following compounds have reported results that may help.
Input Smiles: NS(=O)(=O)c1ccc(CCN2S(=O)(=O)c3ccccc3S2(=O)=O)cc1
pKi: 7.07
//
Input Smiles: NS(=O)(=O)c1ccccc1N1S(=O)(=O)c2ccccc2S1(=O)=O
pKi: 7.17
//
Input Smiles: NS(=O)(=O)c1ccc(N2S(=O)(=O)c3ccccc3S2(=O)=O)c(Cl)c1
pKi: 7.77

# input Give Carbonic anhydrase 9 (Homo sapiens, UniProt Q16790) pKi for NS(=O)(=O)c1cccc(N2S(=O)(=O)c3ccccc3S2(=O)=O)c1
# output 7.49

# input Okay, and NS(=O)(=O)c1ccc(N2S(=O)(=O)c3ccccc3S2(=O)=O)cc1 ?
# output 7.08

# input Okay, and NS(=O)(=O)c1ccc(CN2S(=O)(=O)c3ccccc3S2(=O)=O)cc1 ?
# output 7.30
